test system: SNB-19 CNS; assay: NCI tumour cell line growth inhibition, 48 h
EXPERIMENTAL ENDPOINT: TGI

Example cases with answers are listed next.
O=[N+]([O-])c1ccc2[nH]cc(-c3c4ccccc4cc4[nH]c5ccc([N+](=O)[O-])cc5c34)c2c1 : 9.13 µM
N#CC(C#N)=C1NC(=O)C(c2ccccc2)C(=O)N1 (stereo unspecified) : > 100 µM
Cc1ccc(S(=O)(=O)OC2CN3CCC2CC3)cc1 (stereo unspecified) : > 100 µM
CCOC(=O)C1(C(=O)OCC)C[C@H]2CON=C2[C@@H]1c1ccc(C(F)(F)F)cc1 : > 100 µM
COc1ccc2c(c1)CC[C@@H]1C2CC[C@]2(C)OC(=O)CCC12 (stereo partly specified) : 38.2 µM

Enquiry: Find the recorded TGI belonging to CCCCCCCCCCCCC(Br)C(=O)SCCNC(=O)CCNC(=O)[C@@H](O)C(C)(C)COP(=O)(O)OP(=O)(O)OCC1OC(n2cnc3c(N)ncnc32)C(O)C1OP(=O)(O)O (stereo partly specified) and report it.
Return: > 56.5 µM

Enquiry: Find the recorded TGI belonging to Cc1nc2cc(O)c(O)cc2cc1Oc1ccc(NC(=O)Nc2ccc(Cl)c(Cl)c2)cc1 and report it.
Return: > 32.5 µM

Enquiry: Find the recorded TGI belonging to Cc1ccccc1NC(=O)c1[nH]c(=S)nc(N)c1-c1ccccc1C and report it.
Return: > 100 µM

Enquiry: Find the recorded TGI belonging to CC(=O)NC1C(OCC(=O)NC(C)C(=O)NC(CCC(=O)NCCCCCNc2ccc([N+](=O)[O-])c3[nH]c4ccccc4c(=O)c23)C(N)=O)C(O)C(CO)OC1(C)OCc1ccccc1 (stereo unspecified) and report it.
Return: > 50 µM

Enquiry: Find the recorded TGI belonging to CN1CCN(c2ccc3nc(-c4ccc(OCCCN5C(=O)c6cccc7cccc(c67)C5=O)cc4)[nH]c3c2)CC1 and report it.
Return: 69.6 µM

Enquiry: Find the recorded TGI belonging to Cc1ccc(/C=C(\C#N)n2nnc3cc(F)c(F)cc32)cc1 and report it.
Return: 20.9 µM

Enquiry: Find the recorded TGI belonging to O=C(/C=C1\N=C(c2ccccc2)N(c2ccc3c(c2)Sc2cc(N4C(=O)/C(=C/C(=O)/C=C/c5ccccc5)N=C4c4ccccc4)ccc2N3)C1=O)/C=C/c1ccccc1 and report it.
Return: 80 µM

Enquiry: Find the recorded TGI belonging to CCOC(=O)c1c(NC(=S)NCc2ccccc2)sc2c1CCN(C)C2 and report it.
Return: > 100 µM

Enquiry: Find the recorded TGI belonging to CCCCCCc1cc(C=O)sc1-c1ccc(-c2sc(-c3ccc(-c4ccc(-c5cc(CCCCCC)c(-c6ccc(-c7sc(C=O)cc7CCCCCC)s6)s5)s4)s3)cc2CCCCCC)s1 and report it.
Return: > 100 µM

Enquiry: Find the recorded TGI belonging to NCCOc1ccccn1 and report it.
Return: > 100 µM

Enquiry: Find the recorded TGI belonging to O=c1c2ccccc2nc(-c2ccc(Cl)cc2)n1O and report it.
Return: > 100 µM

Enquiry: Find the recorded TGI belonging to COc1cc(O)c(C(=O)/C=C/c2ccc(O)cc2)cc1Oc1ccc(C(=O)/C=C/c2ccc(O)cc2)c(O)c1 and report it.
Return: 25.1 µM

Enquiry: Find the recorded TGI belonging to CC(=O)OC(C)(C)C1CCC(C)(C(O)COc2ccc(CCNC(=O)c3ccccc3)cc2)O1 (stereo unspecified) and report it.
Return: > 100 µM

Enquiry: Find the recorded TGI belonging to C#CCNC(Cc1ccccc1)C(=O)O (stereo unspecified) and report it.
Return: > 100 µM

Enquiry: Find the recorded TGI belonging to CC(C)(C)c1ccc(-c2nnc(SCc3ccc(Cl)cc3)n2-c2cccc(C(F)(F)F)c2)cc1 and report it.
Return: > 100 µM

Enquiry: Find the recorded TGI belonging to Brc1ccc(-c2ccc(-c3ccc(Br)s3)s2)s1 and report it.
Return: > 100 µM

Enquiry: Find the recorded TGI belonging to COc1ccc2cc(C(=O)NCCc3ccccc3)ccc2c1OC and report it.
Return: > 100 µM

Where do the numbers come from? From PubChem BioAssay (NCI).
